List of EC50 values.
Biological target: T1, human NKG2D expressed on cells (human, UniProt P26718 1-216)
T1 construct: the cell type is named under assay; also called NKG2D on NK92 cells; HEK293T human NKG2D
T1 chain: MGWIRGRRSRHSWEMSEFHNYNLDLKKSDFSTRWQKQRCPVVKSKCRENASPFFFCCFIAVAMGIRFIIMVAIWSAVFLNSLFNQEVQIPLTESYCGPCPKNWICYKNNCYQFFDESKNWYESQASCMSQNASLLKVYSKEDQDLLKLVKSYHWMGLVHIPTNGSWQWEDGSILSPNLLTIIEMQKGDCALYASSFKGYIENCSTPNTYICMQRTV
Assay: flow cytometry; NK92 cells, Zenon-labelled IgG
Write the number in µg/mL without appending the unit.

Answered cases to consult:
{"binder": "anti-NKG2D antibody clone 001 (antibody, V domains shown, From transgenic rabbits) VH: QQLEQSGGGLVTPGGSLKLCCIGSGFDFNTYWMTWVRQAPGKGLEWIGCIHGGSSGSTYYASWVNGRFTLSRDIDQSTGCLQVNSLTAADTAMYYCARPGYRSWSKTFDLWGQGTMVTVSS VL: DIQMTQSPSSLSASVGDRVTITCRASQDISESLNWYQQKPGKAPKLLIYAASSLQSGVPSRFSGSGSGTDYTLTISSLQPEDFATYYCQQANSFPLTFGGGTKVEIK", "observable": "EC50", "quantitative_result": 0.729}
{"binder": "anti-NKG2D antibody clone 395 (antibody, V domains shown, From transgenic rabbits; rabbit VH, human VL) VH: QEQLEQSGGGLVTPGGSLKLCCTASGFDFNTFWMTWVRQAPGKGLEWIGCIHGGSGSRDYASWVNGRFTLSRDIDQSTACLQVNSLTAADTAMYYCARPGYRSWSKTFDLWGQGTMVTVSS VL: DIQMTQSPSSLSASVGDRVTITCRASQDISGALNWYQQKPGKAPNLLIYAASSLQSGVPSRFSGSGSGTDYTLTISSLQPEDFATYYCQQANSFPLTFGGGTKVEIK", "observable": "EC50", "quantitative_result": 0.203}

Request: Fill in reported EC50 for this entry: anti-NKG2D antibody clone 320 (antibody, V domains shown, From transgenic rabbits; also called 320 IgG) VH: EVQLLESGGGLVQPGGSLRLSCATSGFTFSDYAMSWVRQAPGKGLEWVSYNSFSVGSTDYADSVKGRFTISRDNSKNTLYLQMNSLRAEDTAVYYCSKHSGNYYTGPFHYWGQGTLVTVSS VL: DIQLTQSPSFLSASVGDRVTITCRASQGISSYLAWYQQKPGKAPKLLIYAASSLESGVPSRFSGSGSGTDFTLTISSLQPEDFATYYCQQSYSTPITFGQGTRLEIK
Result: 0.734
